All figures here come from ChEMBL document CHEMBL4014286.

# Protocol text: Ratio of drug level in HFD-fed C57BL/6 mouse liver to plasma at 30 mg/kg, po measured 4 hrs post dose
# Assay type: ADME, organism-based
Measurement label: Kp at 4 h

In [3]: df
Out[3]:
                              record_smiles  observed_result
0  O=C(O)Cc1nc(NC(=O)c2nc(Sc3ccccn3)ccc2Sc2ccc(F)cc2)sc1Cl              6.7

----------
# Tested system: Hexokinase-4 (Homo sapiens)
# Sequence (P35557 whole entry): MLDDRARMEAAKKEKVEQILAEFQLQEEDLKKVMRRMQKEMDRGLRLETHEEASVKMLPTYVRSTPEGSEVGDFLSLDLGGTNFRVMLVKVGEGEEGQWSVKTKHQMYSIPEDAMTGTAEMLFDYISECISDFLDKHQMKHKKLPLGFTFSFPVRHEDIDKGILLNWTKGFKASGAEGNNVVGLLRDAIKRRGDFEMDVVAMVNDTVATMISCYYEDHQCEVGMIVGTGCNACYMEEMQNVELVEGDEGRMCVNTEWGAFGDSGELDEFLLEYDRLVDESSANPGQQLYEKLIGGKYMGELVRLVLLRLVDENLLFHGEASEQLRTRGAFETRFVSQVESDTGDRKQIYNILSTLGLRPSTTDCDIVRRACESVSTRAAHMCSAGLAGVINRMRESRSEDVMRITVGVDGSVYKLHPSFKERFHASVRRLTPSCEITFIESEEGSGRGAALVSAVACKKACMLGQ
# Protocol text: Activation of recombinant human glucokinase assessed as conversion of D-glucose to D-glucose-6-phosphate in presence of 10 mM glucose by G6PDH coupled spectrophotometric assay
log10(EC50) for assorted compounds
Measurement label: log10(EC50) (log10 of the value in nM)

>>> df
                              record_smiles                tested_system  measurement_label  observed_result
0  O=C(O)Cc1nc(NC(=O)c2nc(Sc3ccccn3)ccc2Sc2ccc(F)cc2)sc1Cl  Hexokinase-4 (Homo sapiens)        log10(EC50)             0.98
1  COc1ccc(Sc2ccc(Sc3ccccn3)nc2C(=O)Nc2nc(CC(=O)O)cs2)cc1  Hexokinase-4 (Homo sapiens)        log10(EC50)             1.69
2  COc1ccc(Sc2ccc(Sc3ccccn3)nc2C(=O)Nc2ncc(SCC(=O)O)s2)cc1  Hexokinase-4 (Homo sapiens)        log10(EC50)             1.15
3  COc1ccc(Sc2ccc(Sc3ccccn3)nc2C(=O)Nc2ncc(CCC(=O)O)s2)cc1  Hexokinase-4 (Homo sapiens)        log10(EC50)             1.84
4  Cc1ccc(Sc2ccc(Sc3nnc[nH]3)nc2C(=O)Nc2ncns2)cn1  Hexokinase-4 (Homo sapiens)        log10(EC50)             1.44
5  COc1ccc(Sc2ccc(Sc3ccccn3)nc2C(=O)Nc2nc(CC(=O)O)c(Cl)s2)cc1  Hexokinase-4 (Homo sapiens)        log10(EC50)             0.76
6  COc1ccc(Sc2ccc(Sc3nncn3C)nc2C(=O)Nc2ncc(SCC(=O)O)s2)cc1  Hexokinase-4 (Homo sapiens)        log10(EC50)             1.71

----------
# Protocol text: Oral bioavailability in mouse
# Assay type: ADME, organism-based
# Study conditions: in vivo
Measurement label: bioavailability

>>> print(df.to_string())
                              record_smiles  measurement_label  observed_result
0  COc1ccc(Sc2ccc(Sc3nncn3C)nc2C(=O)Nc2ncc(SCC(=O)O)s2)cc1    bioavailability               3%

----------
# Protocol text: Total drug level in HFD-fed C57BL/6 mouse pancreas at 3 mg/kg, po measured 4 hrs post dose
# Assay type: ADME, organism-based
# Study conditions: read-out: Drug uptake
Measurement label: concentration at 4 h (nM)

                              record_smiles  observed_result
0  O=C(O)Cc1nc(NC(=O)c2nc(Sc3ccccn3)ccc2Sc2ccc(F)cc2)sc1Cl               74

----------
# Protocol text: Total drug level in HFD-fed C57BL/6 mouse liver at 30 mg/kg, po measured 4 hrs post dose
# Assay type: ADME, organism-based
# Study conditions: read-out: Drug uptake
Measurement label: concentration at 4 h (µM)

>>> print(df.to_string())
                              record_smiles     measurement_label  observed_result
0  O=C(O)Cc1nc(NC(=O)c2nc(Sc3ccccn3)ccc2Sc2ccc(F)cc2)sc1Cl  concentration at 4 h              127

----------
# Protocol text: Ratio of drug level in HFD-fed C57BL/6 mouse pancreas to plasma at 10 mg/kg, po measured 4 hrs post dose
# Format: ADME, organism-based
Overview of recorded Kp at 4 h for various compounds
Measurement label: Kp at 4 h

In [3]: df
Out[3]:
                              record_smiles  measurement_label  observed_result
0  O=C(O)Cc1nc(NC(=O)c2nc(Sc3ccccn3)ccc2Sc2ccc(F)cc2)sc1Cl          Kp at 4 h              0.1
1  Cc1ccc(Sc2ccc(Sc3nnc[nH]3)nc2C(=O)Nc2ncns2)cn1          Kp at 4 h              0.5

----------
# Protocol text: Total drug level in HFD-fed C57BL/6 mouse plasma at 30 mg/kg, po measured 4 hrs post dose
# Type: ADME, organism-based
Measurement label: concentration at 4 h (µM)

>>> print(df.to_string())
                              record_smiles     measurement_label  observed_result
0  O=C(O)Cc1nc(NC(=O)c2nc(Sc3ccccn3)ccc2Sc2ccc(F)cc2)sc1Cl  concentration at 4 h             19.6

----------
# Protocol text: Total drug level in HFD-fed C57BL/6 mouse pancreas at 30 mg/kg, ip measured 4 hrs post dose
# Format: ADME, organism-based
# Study conditions: read-out: Drug uptake
Measurement label: concentration at 4 h (µM)

>>> df
                              record_smiles  measurement_units  observed_result
0  COc1ccc(Sc2ccc(Sc3nncn3C)nc2C(=O)Nc2ncc(SCC(=O)O)s2)cc1                 µM                4

----------
# Protocol text: Clearance in rat
# Format: ADME
# Study conditions: in vivo
Measurement label: clearance (mL/min/kg)

                              record_smiles  observed_result
0  COc1ccc(Sc2ccc(Sc3nncn3C)nc2C(=O)Nc2ncc(SCC(=O)O)s2)cc1              115
1  COc1ccc(Sc2ccc(Sc3ccccn3)nc2C(=O)Nc2ncc(SCC(=O)O)s2)cc1               28
2  O=C(O)Cc1nc(NC(=O)c2nc(Sc3ccccn3)ccc2Sc2ccc(F)cc2)sc1Cl               50
3  Cc1ccc(Sc2ccc(Sc3nnc[nH]3)nc2C(=O)Nc2ncns2)cn1              1.9

----------
# Protocol text: Half life in rat
# Format: ADME
# Study conditions: in vivo
Measurement label: half-life (h)

>>> print(df.to_string())
                              record_smiles  observed_result
0  O=C(O)Cc1nc(NC(=O)c2nc(Sc3ccccn3)ccc2Sc2ccc(F)cc2)sc1Cl              3.9
1  COc1ccc(Sc2ccc(Sc3ccccn3)nc2C(=O)Nc2ncc(SCC(=O)O)s2)cc1              2.1
2  Cc1ccc(Sc2ccc(Sc3nnc[nH]3)nc2C(=O)Nc2ncns2)cn1              2.7
3  COc1ccc(Sc2ccc(Sc3nncn3C)nc2C(=O)Nc2ncc(SCC(=O)O)s2)cc1                2

----------
Listing of recorded bioavailability by entry.
# Protocol text: Oral bioavailability in rat
# Assay type: ADME, organism-based
# Study conditions: in vivo
Measurement label: bioavailability (%)

                              record_smiles  measurement_label  observed_result
0  COc1ccc(Sc2ccc(Sc3ccccn3)nc2C(=O)Nc2ncc(SCC(=O)O)s2)cc1    bioavailability               57
1  Cc1ccc(Sc2ccc(Sc3nnc[nH]3)nc2C(=O)Nc2ncns2)cn1    bioavailability              100
2  O=C(O)Cc1nc(NC(=O)c2nc(Sc3ccccn3)ccc2Sc2ccc(F)cc2)sc1Cl    bioavailability               25

----------
# Protocol text: Total drug level in HFD-fed C57BL/6 mouse liver at 3 mg/kg, po measured 4 hrs post dose
# Assay type: ADME, organism-based
# Study conditions: read-out: Drug uptake
Measurement label: concentration at 4 h (µM)

>>> print(df.to_string())
                              record_smiles  observed_result
0  O=C(O)Cc1nc(NC(=O)c2nc(Sc3ccccn3)ccc2Sc2ccc(F)cc2)sc1Cl             10.4

----------
# Protocol text: Ratio of drug level in HFD-fed C57BL/6 mouse pancreas to plasma at 30 mg/kg, po measured 4 hrs post dose
# Assay type: ADME, organism-based
Measurement label: Kp at 4 h

                              record_smiles  measurement_label  observed_result
0  O=C(O)Cc1nc(NC(=O)c2nc(Sc3ccccn3)ccc2Sc2ccc(F)cc2)sc1Cl          Kp at 4 h             0.11

----------
Listing of entries alongside the reported concentration at 4 h.
# Protocol text: Total drug level in HFD-fed C57BL/6 mouse liver at 10 mg/kg, po measured 4 hrs post dose
# Format: ADME, organism-based
# Study conditions: read-out: Drug uptake
Measurement label: concentration at 4 h (µM)

>>> print(df.to_string())
                              record_smiles     measurement_label  observed_result
0  O=C(O)Cc1nc(NC(=O)c2nc(Sc3ccccn3)ccc2Sc2ccc(F)cc2)sc1Cl  concentration at 4 h             51.5
1  Cc1ccc(Sc2ccc(Sc3nnc[nH]3)nc2C(=O)Nc2ncns2)cn1  concentration at 4 h             77.7
